Reference source for all entries: ChEMBL document CHEMBL1201862

# Test system: TK-10
# protocolDetails: NCI tumour cell line growth inhibition, 48 h
Activity calls are given as the source filed them. Cut-off read from the data, not from the text of the source: active = GI50 up to about 1.1 µM and inactive = higher.
Reported GI50 values for the following compounds.

// known answers, use as guide
compound: COc1ccc2[nH]c3nnc(N)c-3nc2c1
GI50: 11.3 µM (inactive)
--
compound: COc1cc2c(c(OC)c1OC)-c1ccc(SC)c(=O)cc1C(CC(=O)Oc1cccc(F)c1)C2 (stereo not given)
GI50: 61.7 µM (inactive)
--
compound: COC1C(C)OC(OC2CC(C)(O)Cc3cc4c(c(O)c32)C(=O)c2c(O)cc3c(c2C4=O)OC2OC3(C)C(O)C(N(C)C)C2O)C(OC)C1(C)OC (stereo not given)
GI50: 0.00527 µM (active)
--
compound: O=[N+]([O-])C(C(Cl)=C(Cl)Cl)=C(N1CCOCC1)N1CCOCC1
GI50: > 100 µM (inactive)
--
compound: N#CCc1nc(C#N)c(N)o1
GI50: > 100 µM (inactive)
--
compound: C=C(CC)C(=O)c1ccc(OCC(=O)O)c(Cl)c1Cl
GI50: 16.1 µM (inactive)

Briefly, GI50 measured for `COc1ccc(C[C@H]2COC(=O)[C@@H]2Cc2ccc(Br)cc2)cc1OC` : 28.6 µM (inactive)

Briefly, GI50 measured for Cc1ccc(C2(O)CS/C(=N\C34CC5CC(CC(C5)C3)C4)N2C(P(=O)(O)O)P(=O)(O)O)cc1 (stereo not given) : > 100 µM (inactive)

Briefly, GI50 measured for `CC1=Nc2c(C#N)ncn2N=C(C)C1` : > 100 µM (inactive)

Briefly, GI50 measured for `Cc1ccccc1-n1c(C)nc(-c2ccccc2)cc1=O` : > 100 µM (inactive)
